System: OVCAR-4 ovarian
Assay: NCI tumour cell line growth inhibition, 48 h
parameter measured: TGI

compound	reported value
COc1ccc(SCc2cc(OC)c(OC)c(OC)c2)cc1OC	> 100 µM

Please look up its TGI: CNC(=S)Nc1sc2c(c1C#N)CCCC2 > 75 µM

Using the record for CC1CC2OC(=O)CC2C[C@@H]1O[Si](C)(C)C(C)(C)C (stereo partly specified) , report its TGI. > 100 µM

Need TGI of Oc1ccc2ccccc2c1CN(Cc1c(O)ccc2ccccc12)C1CCCCC1 , thanks. 47.1 µM

What does the record list as TGI for Cc1cc(N(CCC#N)CCC#N)ccc1/C=C\C(=O)Nc1ccccc1 ? > 100 µM

Given the entry COc1ccc(C2=C3c4cc(OC)c(OC)cc4CCN3C(=S)SS2)cc1OC , report its measured TGI. > 100 µM
